Target or system UniProt P47936; recorded quantity Ki.
Sequence (P47936 whole entry): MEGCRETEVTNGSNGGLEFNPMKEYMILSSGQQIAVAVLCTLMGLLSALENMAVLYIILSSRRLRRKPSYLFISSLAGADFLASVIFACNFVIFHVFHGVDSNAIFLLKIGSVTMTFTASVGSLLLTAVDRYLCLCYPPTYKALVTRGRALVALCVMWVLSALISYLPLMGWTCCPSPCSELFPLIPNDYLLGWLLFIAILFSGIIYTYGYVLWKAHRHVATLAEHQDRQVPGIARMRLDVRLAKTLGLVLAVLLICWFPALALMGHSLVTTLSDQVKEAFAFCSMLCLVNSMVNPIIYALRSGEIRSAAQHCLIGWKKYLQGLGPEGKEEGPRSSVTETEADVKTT
One number for each entry, in µM.

Use these answered entries as a reference point.
[
  {
    "smiles": "CCC(CC)(NC(=O)c1ccc(N2CC(OC)C2)c(OCC2CC2)n1)C(=O)NCCF",
    "measured_parameter": "Ki",
    "output_unit": "µM",
    "meas_value": 0.421
  },
  {
    "smiles": "CC(C)(Cc1nnc(-c2ccc(F)cc2)o1)NC(=O)c1ccc(C2CCCC2)c(OCC2CC2)n1",
    "measured_parameter": "Ki",
    "output_unit": "µM",
    "meas_value": 0.403
  },
  {
    "smiles": "COC1CN(c2ccc(C(=O)NC(C)(C)Cc3nnc(-c4ccc(F)cc4)o3)nc2OCC2CC2)C1",
    "measured_parameter": "Ki",
    "output_unit": "µM",
    "meas_value": 0.504
  }
]

I have 2 compounds here; please give me Ki for each one.
1. CC(C)(Cc1nnc(-c2ccc(F)cc2)o1)NC(=O)c1ccc(N2CC(F)(F)C2)c(OCC2CC2)n1
2. CCOCCOCC(C)(C)c1cc(NC(=O)c2ccc(C3CCCC3)c(OCC3CC3)n2)on1

Result ::
[1.05, 0.0117]

###

assay: Ratio of drug level in brain to plasma in ip dosed rat; format: ADME, organism-based; details: read-out: BPR
measured_parameter: Kp
Numbers only.

Query :: State the recorded Kp for this entry: COc1ccc2c(c1)c(CCN1CCOCC1)c(C)n2C(=O)c1cccc(Cl)c1Cl
Result :: 5

###

experiment: Biodistribution in Wistar rat plasma assessed as intact parent tracer level at 48 MBq, iv measured after 20 mins by radio-TLC method; type: ADME, organism-based; details: read-out: Drug uptake
measured_parameter: remaining at 20 min

Query :: State the recorded remaining at 20 min for this entry: CCOC(=O)C(CC)(CC)NC(=O)c1ccc(N2CC(O[11CH3])C2)c(OCC2CC2)n1
Result :: 21%

###

assay: Biodistribution in Wistar rat plasma assessed as intact parent tracer level at 48 MBq, iv measured after 5 mins by radio-TLC method; type: ADME, organism-based; conditions: read-out: Drug uptake
measured_parameter: remaining at 5 min (%)
Numbers only, in %.

Query :: State the recorded remaining at 5 min for this entry: CCOC(=O)C(CC)(CC)NC(=O)c1ccc(N2CC(O[11CH3])C2)c(OCC2CC2)n1
Result :: 51

###

Please go through the items and note down their pEC50.
target: Cannabinoid receptor 2 (Homo sapiens); experiment: Activity at human CB2 receptor expressed in CHO cells assessed as cAMP accumulation incubated for 30 mins by time-resolved FRET assay
Sequence (P34972 whole entry): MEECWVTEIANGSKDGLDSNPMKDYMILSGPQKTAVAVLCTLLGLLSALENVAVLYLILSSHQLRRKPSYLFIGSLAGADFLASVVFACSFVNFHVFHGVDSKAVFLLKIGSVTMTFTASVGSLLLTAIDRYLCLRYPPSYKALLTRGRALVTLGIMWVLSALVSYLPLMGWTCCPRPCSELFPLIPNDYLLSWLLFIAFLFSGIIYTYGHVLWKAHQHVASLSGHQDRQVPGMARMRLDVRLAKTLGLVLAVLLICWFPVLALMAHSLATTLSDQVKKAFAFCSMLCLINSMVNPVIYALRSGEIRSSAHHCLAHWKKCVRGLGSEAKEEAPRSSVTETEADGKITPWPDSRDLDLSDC
Answers are plain numbers, as −log10 of the molar value.

Use these answered entries as a reference point.
[
  {
    "smiles": "CCOC(=O)C(CC)(CC)NC(=O)c1ccc(N2CC(OC)C2)c(OCC2CC2)n1",
    "measured_parameter": "pEC50",
    "meas_value": 8.36
  },
  {
    "smiles": "CCC(CC)(NC(=O)c1ccc(N2CC(F)(F)C2)c(OCC2CC2)n1)C(=O)NCCF",
    "measured_parameter": "pEC50",
    "meas_value": 7.57
  },
  {
    "smiles": "CCC(CC)(NC(=O)c1ccc(N2CC(F)(F)C2)c(OCC2CC2)n1)C(=O)NC",
    "measured_parameter": "pEC50",
    "meas_value": 8.37
  },
  {
    "smiles": "CC(C)(NC(=O)c1ccc(N2CC(F)(F)C2)c(OCC2CC2)n1)c1nnc(-c2cccnc2)o1",
    "measured_parameter": "pEC50",
    "meas_value": 6.40
  },
  {
    "smiles": "COC1CN(c2ccc(C(=O)NC(C)(C)Cc3nnc(C4CCC4)o3)nc2OCC2CC2)C1",
    "measured_parameter": "pEC50",
    "meas_value": 5.40
  },
  {
    "smiles": "COC1CN(c2ccc(C(=O)NC(C)(C)Cc3nnc(-c4ccc(F)cc4)o3)nc2OCC2CC2)C1",
    "measured_parameter": "pEC50",
    "meas_value": 5.74
  }
]

I have 3 compounds here; please give me pEC50 for each one.
1. CCC(CC)(NC(=O)c1ccc(N2CC(OC)C2)c(OCC2CC2)n1)C(=O)NCCF
2. CCC(CC)(NC(=O)c1ccc(N2CC(OC)C2)c(OCC2CC2)n1)C(=O)N1CC(F)C1
3. CCOC(=O)C(CC)(CC)NC(=O)c1ccc(C2CCCC2)c(OCC2CC2)n1

Result ::
[6.55, 8.36, 8.54]
